# target: HLA-A*02:01
# experimentNotes: IEDB peptide-MHC binding, purified MHC/competitive/radioactivity; bounds were set here for any values at or beyond the usual limits of such assays
# testParameters: source organism: Vaccinia virus WR
quantityKind: IC50 (nM)
API: value field is a number in nM; no unit string.

LAYYNSCMLT: 485
FLFYPSMFTL: 0.23
IVPEFAKQYV: 5
DVVILLLSSV: 907

Exercise: Item `NILMDSIFV` has what recorded IC50?
Solution: 179

Exercise: Item `NIEKYFTFLV` has what recorded IC50?
Solution: 1450

Exercise: Item `RVQSFKINI` has what recorded IC50?
Solution: 769

Exercise: Item `CQQKCDMPSL` has what recorded IC50?
Solution: 2370

Exercise: Item `IVVALSSLV` has what recorded IC50?
Solution: 108

Exercise: Item `YLDGQLARL` has what recorded IC50?
Solution: 1.3

Exercise: Item `LLWFLTGTFV` has what recorded IC50?
Solution: 0.32

Exercise: Item `STIDGRIVTL` has what recorded IC50?
Solution: 736

Exercise: Item `YLIHDNIMYT` has what recorded IC50?
Solution: 1.3

* * *

# target: HLA-A*02:06
# experimentNotes: IEDB peptide-MHC binding, purified MHC/competitive/radioactivity; bounds were set here for any values at or beyond the usual limits of such assays
# testParameters: source organism: Vaccinia virus WR
pIC50: −log10 of the molar value.
Kind request: treat 6 as inclusive, so pIC50 at 6 or higher is TRUE, anything lower is FALSE.

Below are worked cases with known answers.
ITDNGPMPYM: TRUE
FMYTKHSML: TRUE
VMDTLNGIMM: TRUE
CAVIPFDDIV: TRUE
IMRNFLRSI: FALSE
LTNAISSRV: TRUE
STYPGNTFV: TRUE
NIGCAVNTPV: TRUE
IMAFILGIII: FALSE
NLETYTRPEI: TRUE

Exercise: Answer whether pIC50 of `GINNVQSLI` is greater than or equal to 6.
Solution: FALSE

Exercise: Answer whether pIC50 of `AAAATCALV` is greater than or equal to 6.
Solution: TRUE

* * *

Here the recorded IC50 is given for each entry.
# target: HLA-A*02:01
# experimentNotes: IEDB peptide-MHC binding, purified MHC/competitive/radioactivity; bounds were set here for any values at or beyond the usual limits of such assays
# testParameters: source organism: Vaccinia virus WR
API: value field is a number in nM; no unit string.

A selection of reference data follows.
ETLPELNLSL: 1100
GLIKKPYRSI: 848

Exercise: Item `RTSQKGTVA` has what recorded IC50?
Solution: 765

Exercise: Item `IMEYHLLFA` has what recorded IC50?
Solution: 13

Exercise: Item `YQLAGYILT` has what recorded IC50?
Solution: 16

Exercise: Item `MTPSPFYTV` has what recorded IC50?
Solution: 6.4

Exercise: Item `IIITCCLLSV` has what recorded IC50?
Solution: 6.3

* * *

# target: HLA-A*02:01
# experimentNotes: IEDB peptide-MHC binding, cellular MHC/competitive/fluorescence; bounds were set here for any values at or beyond the usual limits of such assays
# testParameters: source organism: Vaccinia virus WR
pIC50: −log10 of the molar value.
quantityKind: pIC50

AARLKRSAT: ≤ 4.15
VIRHVDGKIL: ≤ 4.15
VAEHRFENM: ≤ 4.15
NTRDTQQHPI: ≤ 4.15
EIRDQYITA: ≤ 4.15
VVELEPSLAT: ≤ 4.15
ETVSTIDGRI: ≤ 4.15
STLPNKSDV: ≤ 4.15

Exercise: Item `PTLFGRGVI` has what recorded pIC50?
Solution: ≤ 4.15

Exercise: Item `PVETLFGSYI` has what recorded pIC50?
Solution: ≤ 4.15

Exercise: Item `PITIENALV` has what recorded pIC50?
Solution: ≤ 4.15

Exercise: Item `LITTMDGDKL` has what recorded pIC50?
Solution: ≤ 4.15

Exercise: Item `NTSLEIEFT` has what recorded pIC50?
Solution: ≤ 4.15

Exercise: Item `TASGGKVLIT` has what recorded pIC50?
Solution: ≤ 4.15

Exercise: Item `MTPENDEEQT` has what recorded pIC50?
Solution: ≤ 4.15

Exercise: Item `ITGNKVKTEL` has what recorded pIC50?
Solution: ≤ 4.15

Exercise: Item `NQHNIIVEHL` has what recorded pIC50?
Solution: ≤ 4.15

* * *

# target: HLA-A*02:02
# experimentNotes: IEDB peptide-MHC binding, purified MHC/competitive/radioactivity; bounds were set here for any values at or beyond the usual limits of such assays
# testParameters: source organism: Vaccinia virus WR
Here the recorded pIC50 is given for each entry.
pIC50 (log units): -log10 of the concentration in mol/L.

A selection of reference data follows.
FAISYCRAFI: 6.98
SMSQELAEL: 8.40
FVNFVKDMI: 7.26

// next entry
Exercise: Item `NIFMTLVPV` has what recorded pIC50?
Solution: 7.07

* * *

# target: HLA-A*02:01
# experimentNotes: IEDB peptide-MHC binding, cellular MHC/competitive/fluorescence; bounds were set here for any values at or beyond the usual limits of such assays
# testParameters: source organism: Vaccinia virus WR
quantityKind: pIC50
pIC50 (log units): -log10 of the concentration in mol/L.

VTLNAGNIDI: 4.89
CVKYLLDNDI: 4.89

// next entry
Exercise: Item `NIREGTHVLL` has what recorded pIC50?
Solution: 4.87

* * *

# target: HLA-A*02:06
# experimentNotes: IEDB peptide-MHC binding, purified MHC/competitive/radioactivity; bounds were set here for any values at or beyond the usual limits of such assays
# testParameters: source organism: Influenza A virus
quantityKind: pIC50
pIC50 (log units): -log10 of the concentration in mol/L.

Exercise: Value wanted: pIC50 (HLA-A*02:06) of entry `RLIDFLKDV`
Solution: 7.19

Exercise: Value wanted: pIC50 (HLA-A*02:06) of entry `WISFAISCFL`
Solution: 6.09

Exercise: Value wanted: pIC50 (HLA-A*02:06) of entry `FVFTLTVPS`
Solution: 7.74

* * *

# target: HLA-A*02:01
# experimentNotes: IEDB peptide-MHC binding, cellular MHC/competitive/fluorescence; bounds were set here for any values at or beyond the usual limits of such assays
# testParameters: source organism: Vaccinia virus WR
Here the recorded pIC50 is given for each entry.
pIC50 (log units): -log10 of the concentration in mol/L.

A selection of reference data follows.
HMLKLQARNI: 4.62
SVNASKTINA: 4.71
MQRISGSNIV: 4.88

// next entry
Exercise: Value wanted: pIC50 (HLA-A*02:01) of entry `VADLSARNKL`
Solution: 4.64

* * *

Here the recorded pIC50 is given for each entry.
# target: HLA-A*68:02
# experimentNotes: IEDB peptide-MHC binding, purified MHC/competitive/radioactivity; bounds were set here for any values at or beyond the usual limits of such assays
# testParameters: source organism: Vaccinia virus WR
pIC50 (log units): -log10 of the concentration in mol/L.

A selection of reference data follows.
GLILFVLAL: 5.36
EVNDTHYTV: 9.30
LIAGIILLI: 7.70
TIDAINKCV: 6.65

Exercise: Item `YMSNLFDIPL` has what recorded pIC50?
Solution: 6.33

* * *

# target: HLA-A*02:01
# experimentNotes: IEDB peptide-MHC binding, cellular MHC/competitive/fluorescence; bounds were set here for any values at or beyond the usual limits of such assays
# testParameters: source organism: Vaccinia virus WR
pIC50: −log10 of the molar value.
Kind request: treat 5 as inclusive, so pIC50 at 5 or higher is 1 (yes), anything lower is 0 (no).

Below are worked cases with known answers.
YAGTIKESLL: 0 (no)
ALKNSQAELT: 0 (no)
DLEKYFYGEI: 0 (no)
VTLQKVLHVT: 0 (no)

Exercise: Answer whether pIC50 of `VTSSGAIYKL` is greater than or equal to 5.
Solution: 0 (no)

Exercise: Answer whether pIC50 of `HAKYMVTDKT` is greater than or equal to 5.
Solution: 0 (no)

Exercise: Answer whether pIC50 of `KTFMLPKQDI` is greater than or equal to 5.
Solution: 0 (no)

Exercise: Answer whether pIC50 of `SMYTRLRQDT` is greater than or equal to 5.
Solution: 0 (no)

Exercise: Answer whether pIC50 of `ELVFIKPPL` is greater than or equal to 5.
Solution: 0 (no)

Exercise: Answer whether pIC50 of `VLTTPGLNHA` is greater than or equal to 5.
Solution: 0 (no)

Exercise: Answer whether pIC50 of `IQETIRSDT` is greater than or equal to 5.
Solution: 0 (no)

Exercise: Answer whether pIC50 of `RLRQDTEDIV` is greater than or equal to 5.
Solution: 1 (yes)

Exercise: Answer whether pIC50 of `TVKNVDIIDL` is greater than or equal to 5.
Solution: 0 (no)

Exercise: Answer whether pIC50 of `KALSDACKKI` is greater than or equal to 5.
Solution: 0 (no)
